assay.protocol: In vivo concentration in rat plasma exposure at 8 hour after oral administration 50 mg/kg
Format: ADME, organism-based
Set-up: dose 50 mg/kg, route oral
test.parameters: read-out: C
Measured concentration at 8 h accompanies every entry in the list below.
metric.name: concentration at 8 h (ng/mL)

1) CCC[C@H](NC(=O)[C@@H]1[C@H]2CCC[C@H]2CN1C(=O)[C@@H](NC(=O)[C@@H](NC(=O)c1cnccn1)C(C)C)C(C)(C)C)C(=O)C(=O)NC(C)CC (some centres undefined): 920
2) CC(C)[C@H](NC(=O)c1cnccn1)C(=O)N[C@H](C(=O)N1C[C@@H]2CCC[C@@H]2[C@H]1C(=O)N[C@@H](CC(F)F)C(=O)C(=O)NC1CC1)C(C)(C)C: 40
3) CCC[C@H](NC(=O)[C@@H]1[C@H]2CCC[C@H]2CN1C(=O)[C@@H](NC(=O)[C@@H](NC(=O)c1cnccn1)C(C)C)C(C)(C)C)C(=O)C(=O)NC1CC1: 520
4) CC(C)[C@H](NC(=O)c1cnccn1)C(=O)N[C@H](C(=O)N1C[C@@H]2CCC[C@@H]2[C@H]1C(=O)NC(CC(F)F)C(=O)C(=O)NC1CC1)C(C)C (some centres undefined): 20
